B1: LINE1-full (parent)
chain: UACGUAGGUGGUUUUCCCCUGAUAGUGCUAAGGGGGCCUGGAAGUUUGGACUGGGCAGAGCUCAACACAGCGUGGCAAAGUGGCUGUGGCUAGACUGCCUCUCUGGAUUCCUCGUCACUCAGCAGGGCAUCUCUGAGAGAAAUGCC

Variants of: B1
Test: self-cleavage, relative activity (ratio to wild type); higher = more cleavage; in vitro, sequencing; the parent is a self-cleaving ribozyme
Each record gets a class by self-cleavage: zone 1: < 0.4; zone 2: ≥ 0.4 and < 1; zone 3: ≥ 1

Using the reported self-cleavage, which band applies to C90A C99G ? zone 1

Do the same for U26C C118U please zone 3

Moving on to C37G A138G zone 2

Repeat with G32U G83U zone 2

Try the variant A50U U87C zone 1

Cool, now C18A A22G zone 2

Also A69G U73A ? zone 1

Quick one: U12G C99A zone 1

What would you report for A22G G75A ? zone 3

Subsequent entry: U115A C145U zone 3

A79U G86A ? zone 1

Subsequent entry: U23C A57U zone 1

Also, U81A U91A please. zone 2

# iterate: G10A A69G zone 2

Same question for G54A U96C please. zone 1

Follow-up item: U39A A94G zone 1

Can you check A64C U115C next? zone 2

Request: A69G U119C zone 2

And for U26C G105U ? zone 3

Please give the result for U29A C133U too. zone 2

Follow-up entry: A43G A141G zone 3

Here is the next variant: U100A U115A zone 2

// query: G21U U119C zone 3

Next entry: U13C G36C zone 2

Also U20C U26C ? zone 3

Try this variant next: C61U A107G zone 1

Let us now turn to A6G A92U zone 3

Again, but for U45C U47G zone 3

Input U39A G114U zone 3

Another variant to look at: U39C A59U zone 2

What do you have for U45A A64U ? zone 1

Follow-up entry: U96A U132A zone 1

Param item: G34U U96G zone 1

Record: U1C A77G zone 3

Now consider U15A A79U and answer again. zone 3

Cool, now G60A A117G zone 1

Check G105A A141U too. zone 1

Now consider A31G A136G . zone 3
